assay_metric: IC50 (nM)
Respond with the bare value in nM.

Exercise: Which IC50 is reported with Matrix metalloproteinase-9 (Homo sapiens, UniProt P14780) for this entry: "CC#CCOc1ccc(S(=O)(=O)N(C)c2c(C(=O)NO)cc(Br)cc2C2CCN(C)CC2)cc1" ?
Solution: 166

Exercise: Which IC50 is reported with Matrix metalloproteinase-9 (Homo sapiens, UniProt P14780) for this entry: "COc1ccc(S(=O)(=O)N(C)c2c(C(=O)NO)cc(Br)cc2C2CCN(C)CC2)cc1" ?
Solution: 2

Exercise: Which IC50 is reported with Matrix metalloproteinase-9 (Homo sapiens, UniProt P14780) for this entry: "CC#CCOc1ccc(S(=O)(=O)N(C)c2c(C(=O)NO)cc(-c3ccccc3)cc2C2CCN(C)CC2)cc1" ?
Solution: 28
